biological target: DNMT2 (Homo sapiens, UniProt O14717); construct: Recombinant human DNMT2 (full-length); His-tag; made in house; host or cells: E. coli; experiment: MST displacement assay with fluorescent FTAD probe; format: binding; set-up: unit not given here; details: ligand 100 μM, FTAD probe
Property: Fnorm (MST screening); scope: individual compounds

| compound | Fnorm (MST screening) |
| --- | --- |
| CCc1ccc(C(=O)NCC2(C(=O)N[C@@H](CC(=O)NCC(N)=O)Cc3ccccc3)C[C@H]2C(F)(F)F)cc1 (stereo partly shown) [Compound 28] | 871.9 |
| CCc1ccc(C(=O)NCC2(C(=O)N[C@@H](CC(=O)NCC(N)=O)C(=O)O)CC2)cc1 [Compound 37] | 858.6 |
| CCc1ccc(C(=O)NC[C@H](C)C(=O)N[C@@H](CC(=O)NCC(N)=O)Cc2c[nH]c3ccccc23)cc1 [Compound 25] | 855.5 |
| CCc1ccc(C(=O)NCC2(C(=O)N[C@@H](CC(=O)NCCC(N)=O)Cc3ccccc3)CC2)cc1 [Compound 43] | 874.7 |

---

molecular target: DNMT2 (Homo sapiens); construct: Recombinant human DNMT2 (full-length); His-tag; made in house; host or cells: E. coli; test: MST displacement assay with fluorescent FTAD probe; format: binding; details: FTAD probe 100 nM, 2 μM DNMT2; n.b. = no thermophoresis shift observable

| compound | reading.unit | Kd |
| --- | --- | --- |
| CNC(=O)C(NC(=O)C(Cc1c[nH]c2cc(Cl)ccc12)NC(=O)C(CO)NCC(C)Cc1ccc2c(c1)OCO2)C1CCCCC1 (stereo not shown) | µM | 105 |

---

Molecular target: DNMT2 (Homo sapiens, UniProt O14717)
Construct: Recombinant human DNMT2 (full-length); His-tag; made in house; host or cells: E. coli
Sequence (O14717 1-391): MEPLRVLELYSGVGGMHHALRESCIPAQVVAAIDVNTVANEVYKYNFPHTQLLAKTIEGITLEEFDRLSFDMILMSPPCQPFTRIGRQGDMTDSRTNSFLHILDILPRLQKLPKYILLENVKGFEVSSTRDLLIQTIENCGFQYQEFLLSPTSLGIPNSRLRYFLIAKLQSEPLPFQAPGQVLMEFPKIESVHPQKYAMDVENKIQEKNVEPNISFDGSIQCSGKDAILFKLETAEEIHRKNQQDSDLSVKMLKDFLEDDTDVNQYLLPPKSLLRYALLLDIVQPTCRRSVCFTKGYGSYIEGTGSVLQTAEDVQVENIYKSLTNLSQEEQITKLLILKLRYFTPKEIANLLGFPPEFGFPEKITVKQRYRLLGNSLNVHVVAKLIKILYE
Experiment: MST displacement assay with fluorescent FTAD probe
Format: binding
Design: unit not given here
Details: ligand 100 μM, FTAD probe
outcome.measure: Fnorm (MST screening)

| compound | observed.result |
| --- | --- |
| CCc1ccc(C(=O)NCC2(C(=O)N[C@@H](CC(=O)NCC(N)=O)Cc3csc4ccccc34)CC2)cc1 [Compound 32] | 856.7 |
| Cc1ccc(C(=O)NCC2(C(=O)N[C@@H](CC(=O)NCC(N)=O)Cc3ccccc3)CC2)cc1 [Compound 11] | 891.2 |
| CCc1ccc(C(=O)NCC2(C(=O)NC(CC(=O)NCC(N)=O)Cc3ccc(C#N)cc3)CC2)cc1 (stereo not drawn) [Compound 34] | 879.4 |
| CCc1ccc(C(=O)N(C)CC2(C(=O)NC(CC(=O)NCC(N)=O)Cc3ccccc3)CC2)cc1 (stereo not drawn) [Compound 44] | 869.7 |
| CCc1ccc(C(=O)NC2(C(=O)N[C@@H](CC(=O)NCC(N)=O)Cc3c[nH]c4ccccc34)CC2)cc1 [Compound 26] | 861.9 |
| CCc1ccc(C(=O)NCC2(C(=O)NC(CC(=O)NCC(=O)NC)Cc3c[nH]c4ccccc34)CC2)cc1 (stereo not drawn) [Compound 3] | 912.1 |
| C#Cc1ccc(C(=O)NCC2(C(=O)N[C@@H](CC(=O)NCC(N)=O)Cc3ccccc3)CC2)cc1 [Compound 19] | 871.4 |
| CCc1ccc(C(=O)NCC2(C(=O)N[C@@H](CC(=O)NCC(=O)O)Cc3c[nH]c4ccccc34)CC2)cc1 [Compound 9] | 907.7 |
| CC(=O)NCC1(C(=O)N[C@@H](CC(=O)NCC(N)=O)Cc2ccccc2)CC1 [Compound 23] | 864.4 |
| CCc1ccc(C(=O)NCC2(C(=O)N[C@@H](CC(=O)NCC(N)=O)Cc3ccc4ccccc4c3)CC2)cc1 [Compound 36] | 861.7 |
| CCc1ccc(C(=O)NCC2(C(=O)N[C@@H](CC(=O)NCC(N)=O)Cc3ccc(Br)cc3)CC2)cc1 [Compound 17] | 924.6 |
| NC(=O)CNC(=O)C[C@@H](Cc1ccccc1)NC(=O)C1(CNC(=O)C2CCCCC2)CC1 [Compound 22] | 864.4 |
| CCc1ccc(C(=O)NCC2(C(=O)N[C@@H](CC(=O)NCC(N)=O)Cc3ccccc3)C[C@H]2S(C)(=O)=O)cc1 (stereo partly drawn) [Compound 29] | 872.3 |
| CCCc1ccc(C(=O)NCC2(C(=O)N[C@@H](CC(=O)NCC(N)=O)Cc3ccccc3)CC2)cc1 [Compound 12] | 890.4 |
| CCc1ccc(C(=O)NCC2(C(=O)N[C@@H](CC(=O)NCC(N)=O)Cc3ccc(O)cc3)CC2)cc1 [Compound 15] | 862.9 |
| COc1ccc(C(=O)NCC2(C(=O)N[C@@H](CC(=O)NCC(N)=O)Cc3ccccc3)CC2)cc1 [Compound 13] | 897.7 |
| CCc1ccc(C(=O)NCC2(C(=O)NCCC(=O)NCC(N)=O)CC2)cc1 [Compound 38] | 859.4 |
| CCc1ccc(C(=O)NCC2(C(=O)N[C@@H](CC(=O)N[C@@H](C)C(N)=O)Cc3ccccc3)CC2)cc1 [Compound 39] | 871.4 |
| CCc1ccc(C(=O)NCC2(C(=O)N[C@@H](CC(=O)NCC(=O)N(C)C)Cc3ccccc3)CC2)cc1 [Compound 47] | 901.0 |
| CCc1ccc(C(=O)NCC2(C(=O)N[C@@H](CC(=O)NCC(N)=O)Cc3ccc(I)cc3)CC2)cc1 [Compound 33] | 885.6 |
| CCc1ccc(C(=O)NCCC(=O)N[C@@H](CC(=O)NCC(N)=O)Cc2c[nH]c3ccccc23)cc1 [Compound 27] | 863.8 |
